- experimentalTarget: GST-MCL-1 (Homo sapiens, UniProt Q07820)
- Sequence (Q07820 whole entry): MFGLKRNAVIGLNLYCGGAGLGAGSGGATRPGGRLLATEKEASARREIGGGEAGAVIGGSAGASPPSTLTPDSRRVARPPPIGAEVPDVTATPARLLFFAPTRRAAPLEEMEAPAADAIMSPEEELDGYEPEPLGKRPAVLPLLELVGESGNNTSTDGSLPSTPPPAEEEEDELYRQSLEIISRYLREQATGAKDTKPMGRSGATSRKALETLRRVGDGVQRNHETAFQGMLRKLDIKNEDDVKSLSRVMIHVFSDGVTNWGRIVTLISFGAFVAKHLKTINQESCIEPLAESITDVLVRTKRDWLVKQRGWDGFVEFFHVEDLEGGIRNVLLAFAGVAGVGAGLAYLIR
- assayRemarks: TR-FRET MCL-1 binding assay (competition with probe F-Bak)
- conditions: without HS; read-out: MCL-1 Binding Ki
testReadout: log10(Ki) (log10 of the value in nM)
# log10 transformed; quantity=Ki; unit=nM

Solved entries:
1. Cc1c(Cl)c2c(Cl)c(C)c1-c1c(-c3ccc(F)cc3)sc3ncnc(c13)O[C@@H](C(=O)O)Cc1cc(ccc1OCc1ccnc(-c3ccc(O[C@H]4CO[C@H]5[C@@H]4OC[C@@H]5O)cc3)n1)OC[C@@H](CN1CCN(C)CC1)O2    -2.10
2. CO[C@@H]1CO[C@H]2[C@@H]1OC[C@H]2OCCOCCOc1nccc(COc2ccc3cc2C[C@H](C(=O)O)Oc2ncnc4sc(-c5ccc(F)cc5)c(c24)-c2c(C)c(Cl)c(c(Cl)c2C)O[C@H](CN2CCN(C)CC2)CO3)n1    -1.36
3. COCCOCCOC[C@@]1(F)CC=C(c2nccc(COc3ccc4cc3C[C@H](C(=O)O)Oc3ncnc5sc(C6=CCCC6)c(c35)-c3c(C)c(Cl)c(c(Cl)c3C)O[C@H](CN3CCN(C)CC3)CO4)n2)CC1 (relative stereo)    -1.54
4. COCCOCCOCCOCC1(C)CC=C(c2nccc(COc3ccc4cc3C[C@H](C(=O)O)Oc3ncnc5sc(-c6ccc(F)cc6)c(c35)-c3c(C)c(Cl)c(c(Cl)c3C)O[C@H](CN3CCN(C)CC3)CO4)n2)CC1 (single isomer, unassigned) [Example 112]    -1.92

For COCCOCCOCC1(F)CC=C(c2nccc(COc3ccc4cc3C[C@H](C(=O)O)Oc3ncnc5sc(-c6ccc(F)cc6)c(c35)-c3c(C)c(Cl)c(c(Cl)c3C)O[C@H](CN3CCN(C)CC3)CO4)n2)CC1 (single isomer, unassigned) [Example 86] , what is its reported log10(Ki)? -2.10

For Cc1c2ccc(c1Cl)O[C@H](CN1CCN(C)CC1)COc1ccc(OCc3ccnc(N4CCC5(CC4)CC(F)(F)CO5)n3)c(c1)C[C@H](C(=O)O)Oc1ncnc3sc(-c4ccc(F)cc4)c-2c13 , what is its reported log10(Ki)? 0.36

For COCCOCCOCCOC[C@@H]1CN(c2nccc(COc3ccc4cc3C[C@H](C(=O)O)Oc3ncnc5sc(-c6ccc(F)cc6)c(c35)-c3c(C)c(Cl)c(c(Cl)c3C)O[C@H](CN3CCN(C)CC3)CO4)n2)CCO1 , what is its reported log10(Ki)? -1.51

For COCCOCCOCCOCCOCCO[C@H]1CC[C@@H](c2nccc(COc3ccc4cc3C[C@H](C(=O)O)Oc3ncnc5sc(-c6ccc(F)cc6)c(c35)-c3c(C)c(Cl)c(c(Cl)c3C)O[C@H](CN3CCN(C)CC3)CO4)n2)CC1 , what is its reported log10(Ki)? -1.85

For COc1ccccc1-c1nccc(COc2ccc3cc2C[C@H](C(=O)O)Oc2ncnc4sc(-c5ccc(F)cc5)c(c24)-c2ccc(c(Cl)c2C)O[C@H](CN2CCN(C[C@H]4O[C@H](OC)[C@@H](OC)[C@@H](OC)[C@@H]4OC)CC2)CO3)n1 , what is its reported log10(Ki)? -1.85

For Cc1c(Cl)c2c(Cl)c(C)c1-c1c(-c3ccc(F)cc3)sc3ncnc(c13)O[C@@H](C(=O)O)Cc1cc(ccc1OCc1ccnc(-c3ccc(CCN4CCOCC4)cc3)n1)OC[C@@H](CN1CCN(C)CC1)O2 , what is its reported log10(Ki)? -0.73

For COCCOCCOC[C@]1(F)CC[C@@H](c2nccc(COc3ccc4cc3C[C@H](C(=O)O)Oc3ncnc5sc(-c6ccc(F)cc6)c(c35)-c3c(C)c(Cl)c(c(Cl)c3C)O[C@H](CN3CCN(C)CC3)CO4)n2)CC1 , what is its reported log10(Ki)? -2.52

For COCCOCCOCCO[C@H]1CC[C@H](c2nccc(COc3ccc4cc3C[C@H](C(=O)O)Oc3ncnc5sc(-c6ccc(F)cc6)c(c35)-c3c(C)c(Cl)c(c(Cl)c3C)O[C@H](CN3CCN(C)CC3)CO4)n2)CC1 , what is its reported log10(Ki)? -1.89

For Cc1c2ccc(c1Cl)O[C@H](CN1CCN(C)CC1)COc1ccc(OCc3ccnc(-c4ccccc4OCC(=O)O)n3)c(c1)C[C@H](C(=O)O)Oc1ncnc3sc(-c4ccc(F)cc4)c-2c13 (atropisomer, axis not shown) , what is its reported log10(Ki)? -1.82

For COCCOCCOCCOCCOC1(c2nccc(COc3ccc4cc3C[C@H](C(=O)O)Oc3ncnc5sc(-c6ccc(F)cc6)c(c35)-c3c(C)c(Cl)c(c(Cl)c3C)O[C@H](CN3CCN(C)CC3)CO4)n2)CCC1 , what is its reported log10(Ki)? -1.42

For Cc1c(Cl)c2c(Cl)c(C)c1-c1c(-c3ccc(F)cc3)sc3ncnc(c13)O[C@@H](C(=O)O)Cc1cc(ccc1OCc1ccnc(-c3ccc(OC[C@H]4COCCN4C)cc3)n1)OC[C@@H](CN1CCN(C)CC1)O2 , what is its reported log10(Ki)? -1.89

For COCCOCCOCCOCCOc1nccc(COc2ccc3cc2C[C@H](C(=O)O)Oc2ncnc4sc(-c5ccc(F)cc5)c(c24)-c2c(C)c(Cl)c(c(Cl)c2C)O[C@H](CN2CCN(C)CC2)CO3)n1 , what is its reported log10(Ki)? -1.17

For Cc1c(Cl)c2c(Cl)c(C)c1-c1c(-c3ccc(F)cc3)sc3ncnc(c13)O[C@@H](C(=O)O)Cc1cc(ccc1OCc1ccnc(-c3ccc(CCN4CC5COCC5C4)cc3)n1)OC[C@@H](CN1CCN(C)CC1)O2 (some centres unmarked) , what is its reported log10(Ki)? -2.70
